B1: Pistol ribozyme (parent)
chain: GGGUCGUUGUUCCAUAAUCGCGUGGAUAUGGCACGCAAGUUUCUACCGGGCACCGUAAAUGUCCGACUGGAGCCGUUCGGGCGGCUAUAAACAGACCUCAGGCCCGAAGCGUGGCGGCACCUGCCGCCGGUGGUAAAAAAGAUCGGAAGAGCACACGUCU

- Variants of: B1
- Method Summary: aptazyme ON/OFF ratio, guanine; higher = stronger switching; co-transcriptional cleavage with and without guanine
Kindly supply the reported aptazyme ON/OFF ratio values for the records listed here.
# answer = number (no unit)

Entry U8A G9A U11A C12A ; aptazyme ON/OFF ratio = 1.08

Entry U7C G9A U10A U11C C12U C13A ; aptazyme ON/OFF ratio = 1.24

Entry U7A U8A G9U U10A U11G ; aptazyme ON/OFF ratio = 1.38

Entry U7C U8G G9A U11G C13A ; aptazyme ON/OFF ratio = 1.21

Entry U7A U8G G9C U10A C13A ; aptazyme ON/OFF ratio = 1.19

Entry C12G C13A ; aptazyme ON/OFF ratio = 1.37

Entry U7A C13U ; aptazyme ON/OFF ratio = 1.58

Entry U7C U8A G9U U10G U11G C13A ; aptazyme ON/OFF ratio = 1.13

Entry U7C U8A G9A U10G C12G ; aptazyme ON/OFF ratio = 1.25

Entry U7G U10A U11A C12A ; aptazyme ON/OFF ratio = 1.07

Entry U8C G9C U10C U11A C12G C13G ; aptazyme ON/OFF ratio = 1.08

Entry U7A U8C C12U ; aptazyme ON/OFF ratio = 1.49

Entry U7G U8C G9A C12A ; aptazyme ON/OFF ratio = 1.06

Entry U7G U8G G9A U10A C12A C13A ; aptazyme ON/OFF ratio = 1.2

Entry U7G U8C G9A U11C C12U C13U ; aptazyme ON/OFF ratio = 1.08

Entry U8C G9A U11C C12U ; aptazyme ON/OFF ratio = 1.16

Entry U7G U8G G9A U10G C12U C13U ; aptazyme ON/OFF ratio = 1.17

Entry U7C U8C G9U U11C C12A ; aptazyme ON/OFF ratio = 1.17

Entry U8G G9A U10C U11C C12A C13G ; aptazyme ON/OFF ratio = 1.12

Entry U8C G9A C12A C13G ; aptazyme ON/OFF ratio = 1.14

Entry U7C U8G G9C U11A C12U C13G ; aptazyme ON/OFF ratio = 1.09

Entry U7A U8C G9C U10A ; aptazyme ON/OFF ratio = 1.17

Entry G9C U10C U11A C12A C13G ; aptazyme ON/OFF ratio = 1.07

Entry G9A U11G C12U ; aptazyme ON/OFF ratio = 2.06

Entry U8G U11A ; aptazyme ON/OFF ratio = 3.01

Entry U7A U8A G9A U10A U11C C12A C13U ; aptazyme ON/OFF ratio = 1.24

Entry U7A U8A G9C U11A C12A C13A ; aptazyme ON/OFF ratio = 1.08

Entry U7A U8C G9U U10A C13U ; aptazyme ON/OFF ratio = 1.15

Entry U8G U11A C12U C13A ; aptazyme ON/OFF ratio = 1.18

Entry U7C G9A U10A U11G C12A C13U ; aptazyme ON/OFF ratio = 1.15

Entry U7C U8G G9C U10C C13A ; aptazyme ON/OFF ratio = 1.06

Entry U7C U8G U10C U11G C13G ; aptazyme ON/OFF ratio = 1.1

Entry U7A G9U C13A ; aptazyme ON/OFF ratio = 1.29

Entry U7A G9U U10G U11C C13G ; aptazyme ON/OFF ratio = 1.08

Entry U8C G9C U10A ; aptazyme ON/OFF ratio = 1.51

Entry U7G U8C G9A U10A U11A ; aptazyme ON/OFF ratio = 3.25

Entry U7C U8C G9U U10G U11G C12A C13U ; aptazyme ON/OFF ratio = 1.1

Entry U7G U8C G9C U10G U11G C12A C13A ; aptazyme ON/OFF ratio = 1.11

Entry U8C G9A U10C U11A C13G ; aptazyme ON/OFF ratio = 1.15

Entry U7G U8C G9U U10G U11G C12A ; aptazyme ON/OFF ratio = 1.31

Entry U8A G9A U10A U11G C12A C13G ; aptazyme ON/OFF ratio = 1.18

Entry U7A U11C C12U C13G ; aptazyme ON/OFF ratio = 1.38

Entry U8A G9A U10G U11A C12G C13G ; aptazyme ON/OFF ratio = 1.19

Entry U7C U8A G9A U10A C12A C13A ; aptazyme ON/OFF ratio = 1.19

Entry U7G U8A G9C U10A U11A C12U C13U ; aptazyme ON/OFF ratio = 1.05

Entry U8G G9A U10G U11G C12U ; aptazyme ON/OFF ratio = 1.12

Entry U7G U8G G9C U11G C13U ; aptazyme ON/OFF ratio = 1.49

Entry U10G U11A C12A C13U ; aptazyme ON/OFF ratio = 1.27

Entry U7G U8G G9U U11G C12G ; aptazyme ON/OFF ratio = 1.41

Entry U7A U8A G9C U10G U11C C12G C13U ; aptazyme ON/OFF ratio = 1.22

Entry U8A G9A U10C U11G ; aptazyme ON/OFF ratio = 1.33

Entry U7G U8C G9U U10A U11C C12G C13U ; aptazyme ON/OFF ratio = 1.31

Entry U8C G9A U10C C12A C13A ; aptazyme ON/OFF ratio = 1.27

Entry U7G U8A G9U U10A U11G C12G C13U ; aptazyme ON/OFF ratio = 1.08

Entry U7C U8A U10G U11A C12U C13U ; aptazyme ON/OFF ratio = 1.33

Entry U7A U8G G9C U11G C12G C13A ; aptazyme ON/OFF ratio = 1.1

Entry U8A G9A U10C U11C C12A C13U ; aptazyme ON/OFF ratio = 1.02

Entry U7G U8A G9A U10G C12A ; aptazyme ON/OFF ratio = 1.32

Entry U7C U8C G9A U10G U11G C12G ; aptazyme ON/OFF ratio = 1.16

Entry U7C U8A G9A U10C C12G C13A ; aptazyme ON/OFF ratio = 1.13

Entry U8A U10C U11A C12U ; aptazyme ON/OFF ratio = 1.2

Entry U7A U8C U10C U11A C12A C13G ; aptazyme ON/OFF ratio = 1.15

Entry U8G U10C U11A C12A C13U ; aptazyme ON/OFF ratio = 1.24

Entry U7G G9A U10G C12G C13A ; aptazyme ON/OFF ratio = 1.1

Entry U7A U8A G9A ; aptazyme ON/OFF ratio = 1.87

Entry U7G U8A U10C U11G ; aptazyme ON/OFF ratio = 2.09

Entry U7G U8G U10C U11G C12U ; aptazyme ON/OFF ratio = 1.23

Entry U7G U8G G9C U10C U11G C12A ; aptazyme ON/OFF ratio = 1.22

Entry G9A U10C C12G ; aptazyme ON/OFF ratio = 1.32
